test: Protein binding in dog plasma assessed as unbound fraction at 400 uM incubated for 4 hrs by LC-MS/MS analysis; type: ADME, cell-free, Canis lupus familiaris
endpoint: fraction unbound at 4 h, 400 µM

[[record]]
compound_string = "CN1C(=O)c2c(O)c(=O)ccn2N2[C@H](c3ccccc3)c3cc(F)c(F)cc3OCC[C@@H]12"
value = 0.218


* * *

experiment: Volume of distribution at steady state in BALB/c mouse at 2 mg/kg, iv measured after 24 hrs by LC-MS/MS analysis; format: ADME, organism-based; settings: in vivo, read-out: Vdss
Items are presented alongside their recorded Vd.
endpoint: Vd

[[record]]
compound_string = "CN1C(=O)c2c(O)c(=O)ccn2N2[C@H](c3ccccc3)c3cc(F)c(F)cc3OCC[C@@H]12"
endpoint = "Vd"
value = "4.41 L/kg"

[[record]]
compound_string = "O=C1c2c(O)c(=O)ccn2N([C@@H]2c3ccccc3SCc3c2ccc(F)c3F)[C@@H]2COCCN12"
endpoint = "Vd"
value = "14 L/kg"


* * *

Items are presented alongside their recorded EC90.
tested on: Influenza A virus; test: Antiviral activity against Influenza A virus A/PR/8/34 (H1N1) infected in MDCK cells assessed as reduction in virus-induced cytopathic effect incubated for 5 days by CCK8 based microplate spectrophotometric analysis; format: functional, organism-based; conditions: 120 h, time 5 day
endpoint: EC90

[[record]]
compound = "CC(C)N1C(=O)c2c(O)c(=O)ccn2N2[C@H](c3ccccc3)c3ccccc3OCC[C@@H]12 (racemic)"
value = "105 nM"

[[record]]
compound = "CN1C(=O)c2c(O)c(=O)ccn2N2[C@H](c3ccccc3C#N)c3cc(F)c(F)cc3OCC[C@@H]12 (racemic)"
value = "> 500 nM"

[[record]]
compound = "CN1C(=O)c2c(O)c(=O)ccn2N2[C@H](c3ccccc3)c3ccc(F)c(F)c3OCC[C@@H]12 (racemic)"
value = "93 nM"

[[record]]
compound = "CN1C(=O)c2c(O)c(=O)ccn2N2[C@@H](c3ccccc3)c3ccccc3OCC[C@H]12"
value = "> 500 nM"

[[record]]
compound = "CN1C(=O)c2c(O)c(=O)ccn2N2[C@H](c3ccccc3)c3cc(F)c(F)cc3OCC[C@@H]12"
value = "12 nM"

[[record]]
compound = "CN1C(=O)c2c(O)c(=O)ccn2N2[C@H](c3ccccc3F)c3cc(F)c(F)cc3OCC[C@@H]12"
value = "16 nM"

[[record]]
compound = "CN1C(=O)c2c(O)c(=O)ccn2N2C(c3ccccc3)c3ccccc3OCCC12 (racemic)"
value = "> 1000 nM"

[[record]]
compound = "CN1C(=O)c2c(O)c(=O)ccn2N2[C@H](c3ccccc3Br)c3cc(F)c(F)cc3OCC[C@@H]12 (racemic)"
value = "18 nM"


* * *

assay: Prodrug conversion in BALB/c mouse assessed as (7aS,16R)-2,3-difluoro-10-hydroxy-8-methyl-16-phenyl-6,7,7a,8-tetrahydro-16H-benzo[b]pyrido[1',2':1,6][1,2,4]triazino[2,3-e][1,5]oxazocine-9,11-dione Cmax at 10 mg/kg, po measured after 24 hrs by LC-MS/MS analysis; format: ADME, organism-based; settings: in vivo
endpoint: Cmax (nM)

[[record]]
compound_string = "COC(=O)OCOc1c2n(ccc1=O)N1[C@H](c3ccccc3)c3cc(F)c(F)cc3OCC[C@H]1N(C)C2=O"
endpoint = "Cmax"
value = 309

